Assay: Plasma pharmacokinetics of BI 187004 after single oral doses (LC–MS/MS)
Conditions: male, human, plasma, po, 5 mg, Plasma concentration Mean, 5 mg single oral; 48 h
measurementLabel: concentration at 48 h
Just so you know, I need the unit written after the number.

Recorded concentration at 48 h for N#Cc1ccc2c(c1)[C@H]1CCCN(C(=O)c3ccc4[nH]cnc4c3)[C@H]1C2 [BI 187004] , please?
13.1 nM

###

Assay: Plasma pharmacokinetics of BI 187004 after single oral doses (LC–MS/MS)
Settings: male, human, plasma, po, 240 mg, BI 187004 plasma concentrations, Max, 240 mg single oral, planned time 1.5 h
measurementLabel: concentration at 1.5 h (µM)
Give just the number in µM; leave the unit off.

Recorded concentration at 1.5 h for N#Cc1ccc2c(c1)[C@H]1CCCN(C(=O)c3ccc4[nH]cnc4c3)[C@H]1C2 [BI 187004] , please?
9.03

###

Assay: Plasma pharmacokinetics of BI 187004 after single oral doses (LC–MS/MS)
Details: male, human, plasma, po, 5 mg, Plasma concentration, individual subjects, 5 mg single oral; planned time 3 h
measurementLabel: concentration at 3 h (nM)
Give just the number in nM; leave the unit off.

Recorded concentration at 3 h for N#Cc1ccc2c(c1)[C@H]1CCCN(C(=O)c3ccc4[nH]cnc4c3)[C@H]1C2 [BI 187004] , please?
118

###

Assay: Plasma pharmacokinetics of BI 187004 after single oral doses (LC–MS/MS)
Conditions: male, human, plasma, po, 360 mg, BI 187004 plasma concentrations, Mean, 360 mg single oral, planned time 3 h
measurementLabel: concentration at 3 h
Just so you know, I need the unit written after the number.

Recorded concentration at 3 h for N#Cc1ccc2c(c1)[C@H]1CCCN(C(=O)c3ccc4[nH]cnc4c3)[C@H]1C2 [BI 187004] , please?
9.36 µM

###

Test: Plasma pharmacokinetics of BI 187004 after single oral doses (LC–MS/MS)
Conditions: male, human, plasma, po, 2.5 mg, Plasma concentration gMean, 2.5 mg single oral; 3 h
measurementLabel: concentration at 3 h (nM)
Give just the number in nM; leave the unit off.

Recorded concentration at 3 h for N#Cc1ccc2c(c1)[C@H]1CCCN(C(=O)c3ccc4[nH]cnc4c3)[C@H]1C2 [BI 187004] , please?
6.19

###

Assay: Plasma pharmacokinetics of BI 187004 after single oral doses (LC–MS/MS)
Settings: male, human, plasma, po, 160 mg, BI 187004 plasma concentrations, 160 mg single oral, planned time 0.5 h, gMean
measurementLabel: concentration at 0.5 h (µM)
Give just the number in µM; leave the unit off.

Recorded concentration at 0.5 h for N#Cc1ccc2c(c1)[C@H]1CCCN(C(=O)c3ccc4[nH]cnc4c3)[C@H]1C2 , please?
5.86

###

Assay: Plasma pharmacokinetics of BI 187004 after single oral doses (LC–MS/MS)
Conditions: male, human, plasma, po, 10 mg, Plasma concentration, individual subjects, 10 mg single oral; planned time 4 h
measurementLabel: concentration at 4 h

Recorded concentration at 4 h for N#Cc1ccc2c(c1)[C@H]1CCCN(C(=O)c3ccc4[nH]cnc4c3)[C@H]1C2 [BI 187004] , please?
412 nM

###

Assay: BI 187004 concentration in subcutaneous adipose tissue biopsies (LC–MS/MS)
Type: in vivo, human
Conditions: male, human, subcutaneous adipose tissue, oral; 40 mg single dose; adipose tissue; 24 h; read-out: AT C24 gMean (range)
measurementLabel: concentration at 24 h

Recorded concentration at 24 h for N#Cc1ccc2c(c1)[C@H]1CCCN(C(=O)c3ccc4[nH]cnc4c3)[C@H]1C2 [BI 187004] , please?
27.5 nM

###

Assay: Plasma pharmacokinetics of BI 187004 after single oral doses (LC–MS/MS)
Settings: male, human, plasma, po, 360 mg, BI 187004 plasma concentrations, Mean, 360 mg single oral, planned time 2.5 h
measurementLabel: concentration at 2.5 h (µM)
Give just the number in µM; leave the unit off.

Recorded concentration at 2.5 h for N#Cc1ccc2c(c1)[C@H]1CCCN(C(=O)c3ccc4[nH]cnc4c3)[C@H]1C2 , please?
10.3

###

Assay: Plasma pharmacokinetics of BI 187004 after single oral doses (LC–MS/MS)
Conditions: male, human, plasma, po, 80 mg, BI 187004 plasma concentrations, 80 mg single oral, planned time 72 h, Median
measurementLabel: concentration at 72 h (nM)
Give just the number in nM; leave the unit off.

Recorded concentration at 72 h for N#Cc1ccc2c(c1)[C@H]1CCCN(C(=O)c3ccc4[nH]cnc4c3)[C@H]1C2 [BI 187004] , please?
65.1

###

Assay: BI 187004 concentration in subcutaneous adipose tissue biopsies (LC–MS/MS)
Format: in vivo, human
Conditions: male, human, subcutaneous adipose tissue, oral; 20 mg single dose; adipose tissue; 24 h; read-out: AT C24 gMean (range)
measurementLabel: concentration at 24 h (nM)
Give just the number in nM; leave the unit off.

Recorded concentration at 24 h for N#Cc1ccc2c(c1)[C@H]1CCCN(C(=O)c3ccc4[nH]cnc4c3)[C@H]1C2 , please?
17.5

###

Test: Plasma pharmacokinetics of BI 187004 after single oral doses (LC–MS/MS)
Details: male, human, plasma, po, 40 mg, BI 187004 plasma concentrations, 40 mg single oral, planned time 5 h, gMean
measurementLabel: concentration at 5 h

Recorded concentration at 5 h for N#Cc1ccc2c(c1)[C@H]1CCCN(C(=O)c3ccc4[nH]cnc4c3)[C@H]1C2 [BI 187004] , please?
1290 nM

###

Test: Plasma pharmacokinetics of BI 187004 after single oral doses (LC–MS/MS)
Details: male, human, plasma, po, 160 mg, BI 187004 plasma concentrations, 160 mg single oral, planned time 4 h, gMean
measurementLabel: concentration at 4 h

Recorded concentration at 4 h for N#Cc1ccc2c(c1)[C@H]1CCCN(C(=O)c3ccc4[nH]cnc4c3)[C@H]1C2 , please?
5.77 µM

###

Test: Plasma pharmacokinetics of BI 187004 after single oral doses (LC–MS/MS)
Details: male, human, plasma, po, 360 mg, BI 187004 plasma concentrations, gMean, 360 mg single oral, planned time 24 h
measurementLabel: concentration at 24 h (nM)
Give just the number in nM; leave the unit off.

Recorded concentration at 24 h for N#Cc1ccc2c(c1)[C@H]1CCCN(C(=O)c3ccc4[nH]cnc4c3)[C@H]1C2 , please?
2690

###

Assay: Plasma pharmacokinetics of BI 187004 after single oral doses (LC–MS/MS)
Settings: male, human, plasma, po, 40 mg, BI 187004 plasma concentrations, 40 mg single oral, planned time 1 h, Mean
measurementLabel: concentration at 1 h (nM)
Give just the number in nM; leave the unit off.

Recorded concentration at 1 h for N#Cc1ccc2c(c1)[C@H]1CCCN(C(=O)c3ccc4[nH]cnc4c3)[C@H]1C2 [BI 187004] , please?
2170

###

Test: Plasma pharmacokinetics of BI 187004 after single oral doses (LC–MS/MS)
Conditions: male, human, plasma, po, 80 mg, BI 187004 plasma concentrations, 80 mg single oral, planned time 1.5 h, gMean
measurementLabel: concentration at 1.5 h
Just so you know, I need the unit written after the number.

Recorded concentration at 1.5 h for N#Cc1ccc2c(c1)[C@H]1CCCN(C(=O)c3ccc4[nH]cnc4c3)[C@H]1C2 [BI 187004] , please?
2220 nM

###

Assay: Plasma pharmacokinetics of BI 187004 after single oral doses (LC–MS/MS)
Conditions: male, human, plasma, po, 360 mg, BI 187004 plasma concentrations, Max, 360 mg single oral, planned time 5 h
measurementLabel: concentration at 5 h (µM)
Give just the number in µM; leave the unit off.

Recorded concentration at 5 h for N#Cc1ccc2c(c1)[C@H]1CCCN(C(=O)c3ccc4[nH]cnc4c3)[C@H]1C2 [BI 187004] , please?
9.63

###

Assay: Plasma pharmacokinetics of BI 187004 after single oral doses (LC–MS/MS)
Conditions: male, human, plasma, po, 40 mg, BI 187004 plasma concentrations, 40 mg single oral, planned time 4 h, Min
measurementLabel: concentration at 4 h (µM)
Give just the number in µM; leave the unit off.

Recorded concentration at 4 h for N#Cc1ccc2c(c1)[C@H]1CCCN(C(=O)c3ccc4[nH]cnc4c3)[C@H]1C2 , please?
1.02

###

Assay: Plasma pharmacokinetics of BI 187004 after single oral doses (LC–MS/MS)
Settings: male, human, plasma, po, 20 mg, BI 187004 plasma concentrations, 20 mg single oral, planned time 96 h, Max
measurementLabel: concentration at 96 h (nM)
Give just the number in nM; leave the unit off.

Recorded concentration at 96 h for N#Cc1ccc2c(c1)[C@H]1CCCN(C(=O)c3ccc4[nH]cnc4c3)[C@H]1C2 [BI 187004] , please?
18.2

###

Experiment: Plasma pharmacokinetics of BI 187004 after single oral doses (LC–MS/MS)
Conditions: male, human, plasma, po, 80 mg, BI 187004 plasma concentrations, 80 mg single oral, planned time 2.5 h, Mean
measurementLabel: concentration at 2.5 h (nM)
Give just the number in nM; leave the unit off.

Recorded concentration at 2.5 h for N#Cc1ccc2c(c1)[C@H]1CCCN(C(=O)c3ccc4[nH]cnc4c3)[C@H]1C2 , please?
2350
